# Kd per entry
- assay target: T1, Bim-BH3 motif fused to the C-terminus of maltose-binding protein (MBP) (human, UniProt O43521 141-166)
- T1 construct: domain: Bim-BH3 motif; also called MBP-Bim-BH3
- T1 sequence (O43521 141-166 limits assumed): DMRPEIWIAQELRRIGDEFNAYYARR
- experiment notes: BLI, biotinylated target on streptavidin sensor, MBP-Bim-BH3 in solution
I only need the number, in nM, no unit after it.

human Bcl-w a.a. 1-182 with C-terminal avi-6his tag (other, range 1-182; also called BCL2L2) MATPASAPDTRALVADFVGYKLRQKGYVCGAGPGEGPAADPLHQAMRAAGDEFETRFRRTFSDLAAQLHVTPGSAQQRFTQVSDELFQGGPNWGRLVAFFVFGAALCAESVNKEMEPLVGQVQEWMVAYLETQLADWIHSSGGWAEFTALYGDGALEEARRLREGNWASVRTVLTGAVALGAGLNDIFEAQKIEWHEGSHHHHHH: 20
human Mcl-1 a.a. 172-327 with C-terminal avi-6his tag (other) GSDELYRQSLEIISRYLREQATGAKDTKPMGRSGATSRKALETLRRVGDGVQRNHETAFQGMLRKLDIKNEDDVKSLSRVMIHVFSDGVTNWGRIVTLISFGAFVAKHLKTINQESCIEPLAESITDVLVRTKRDWLVKQRGWDGFVEFFHVEDLEGGGLNDIFEAQKIEWHEGSHHHHHH: 0.17
human Bfl-1 a.a. 1-153 (C4S) with C-terminal avi-6his tag (other, also called A1/Bfl-1) TDSEFGYIYRLAQDYLQCVLQIPQPGSGPSKTSRVLQNVAFSVQKEVEKNLKSCLDNVNVVSVDTARTLFNQVMEKEFEDGIINWGRIVTIFAFEGILIKKLLRQQIAPDVDTYKEISYFVAEFIMNNTGEWIRQNGGWENGFVKKFEPKSGGLNDIFEAQKIEWHEGSHHHHHH: 0.61
Epstein-Barr virus BHRF1 a.a. 1-161 with C-terminal avi-6his tag (other, also called EBV BHRF1; BHRF1-biotin) AYSTREILLALCIRDSRVHGNGTLHPVLELAARETPLRLSPEDTVVLRYHVLLEEIIERNSETFTETWNRFITHTEHVDLDFNSVFLEIFHRGDPSLGRALAWMAWCMHACRTLCCNQSTPYYVVDLSVRGMLEASEGLDGWIHQQGGWSTLIEDNIPGSGLNDIFEAQKIEWHEGSHHHHHH: 7
human Bcl-XL a.a. 1-205 with C-terminal avi-6his tag (other, also called BCL2L1) SQSNRELVVDFLSYKLSQKGYSWSQFSDVEENRTEAPEGTESEMETPSAINGNPSWHLADSPAVNGATGHSSSLDAREVIPMAAVKQALREAGDEFELRYRRAFSDLTSQLHITPGTAYQSFEQVVNELFRDGVNWGRIVAFFSFGGALCVESVDKEMQVLVSRIAAWMATYLNDHLEPWIQENGGWDTFVELYGNNAAAESRKGLNDIFEAQKIEWHEGSHHHHHH: 1.56

Here is another binder to look at.
Incoming: Any idea what Kd was measured for human Bcl-B a.a. 11-175 with C-terminal avi-6his tag (other, also called BCL2L10) ADPLRERTELLLADYLGYCAREPGTPEPAPSTPEAAVLRSAAARLRQIHRSFFSAYLGYPGNRFELVALMADSVLSDSPGPTWGRVVTLVTFAGTLLERGPLVTARWKKWGFQPRLKEQEGDVARDCQRLVALLSSRLMGQHRAWLQAQGGWDGFCHFFRTPFPGLNDIFEAQKIEWHEGSHHHHHH ?
Outgoing: 7
